Test system: 885512-296-R-J2-PDC complex spheroid growth, % test/control;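 note: spheroids exposed to compounds for seven days; 100% = DMSO vehicle control wells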
Assay: Anticancer human tumor 885512-296-R-J2-PDC patient-derived breast carcinoma cell line growth inhibition [Asc]
Settings: second compound 0.0316 µM; first compound 1 µM; active compounds read low
Define the label as class 1 when viability, T/C is strictly less than 80% and as class 0 in all remaining cases.

COc1c(OCCCN2CCOCC2)ccc2c3n(c(=NC(=O)c4cnc(N)nc4)nc12)CCN3 + CNC(C)C(=O)NC1CN(S(=O)(=O)c2cccc(S(=O)(=O)N3CCC4CCC(C(=O)NC(c5ccccc5)c5ccccc5)N4C(=O)C(NC(=O)C(C)NC)C3)c2)CCC2CCC(C(=O)NC(c3ccccc3)c3ccccc3)N2C1=O
class 1
O=C(c1ccc(F)c(F)c1Nc1ccc(I)cc1F)N1CC(O)([C@@H]2CCCCN2)C1 + CNC(C)C(=O)NC1CN(S(=O)(=O)c2cccc(S(=O)(=O)N3CCC4CCC(C(=O)NC(c5ccccc5)c5ccccc5)N4C(=O)C(NC(=O)C(C)NC)C3)c2)CCC2CCC(C(=O)NC(c3ccccc3)c3ccccc3)N2C1=O
class 1
C=CC(=O)N1CCN(c2nc(=O)n(-c3c(C)ccnc3C(C)C)c3nc(-c4c(O)cccc4F)c(F)cc23)C(C)C1 (configuration not stated) + CNC(C)C(=O)NC1CN(S(=O)(=O)c2cccc(S(=O)(=O)N3CCC4CCC(C(=O)NC(c5ccccc5)c5ccccc5)N4C(=O)C(NC(=O)C(C)NC)C3)c2)CCC2CCC(C(=O)NC(c3ccccc3)c3ccccc3)N2C1=O
class 0

Bench note: check whether CCN1CCN(Cc2ccc(Nc3ncc(F)c(-c4cc(F)c5nc(C)n(C(C)C)c5c4)n3)nc2)CC1 + CNC(C)C(=O)NC1CN(S(=O)(=O)c2cccc(S(=O)(=O)N3CCC4CCC(C(=O)NC(c5ccccc5)c5ccccc5)N4C(=O)C(NC(=O)C(C)NC)C3)c2)CCC2CCC(C(=O)NC(c3ccccc3)c3ccccc3)N2C1=O shows viability, T/C below 80%
class 1

Bench note: check whether C#Cc1c(F)ccc2cc(O)cc(-c3ncc4c(N5CC6CCC(C5)N6)nc(OCC56CCCN5CC(F)C6)nc4c3F)c12 (configuration not stated) + CNC(C)C(=O)NC1CN(S(=O)(=O)c2cccc(S(=O)(=O)N3CCC4CCC(C(=O)NC(c5ccccc5)c5ccccc5)N4C(=O)C(NC(=O)C(C)NC)C3)c2)CCC2CCC(C(=O)NC(c3ccccc3)c3ccccc3)N2C1=O shows viability, T/C below 80%
class 0

Bench note: check whether C=C(F)C(=O)N1CCN(c2nc(OCC3CCCN3C)nc3c2CCN(c2cccc4cccc(Cl)c24)C3)CC1CC#N (configuration not stated) + CNC(C)C(=O)NC1CN(S(=O)(=O)c2cccc(S(=O)(=O)N3CCC4CCC(C(=O)NC(c5ccccc5)c5ccccc5)N4C(=O)C(NC(=O)C(C)NC)C3)c2)CCC2CCC(C(=O)NC(c3ccccc3)c3ccccc3)N2C1=O shows viability, T/C below 80%
class 0

Bench note: check whether O=C(c1cc(Cc2n[nH]c(=O)c3ccccc23)ccc1F)N1CCN(C(=O)C2CC2)CC1 + CNC(C)C(=O)NC1CN(S(=O)(=O)c2cccc(S(=O)(=O)N3CCC4CCC(C(=O)NC(c5ccccc5)c5ccccc5)N4C(=O)C(NC(=O)C(C)NC)C3)c2)CCC2CCC(C(=O)NC(c3ccccc3)c3ccccc3)N2C1=O shows viability, T/C below 80%
class 0
